Measured on: Catenin beta-1/Transcription factor 7 (Homo sapiens, UniProt P35222+P36402)
Sequence (P36402 whole entry, the tested form may be a part): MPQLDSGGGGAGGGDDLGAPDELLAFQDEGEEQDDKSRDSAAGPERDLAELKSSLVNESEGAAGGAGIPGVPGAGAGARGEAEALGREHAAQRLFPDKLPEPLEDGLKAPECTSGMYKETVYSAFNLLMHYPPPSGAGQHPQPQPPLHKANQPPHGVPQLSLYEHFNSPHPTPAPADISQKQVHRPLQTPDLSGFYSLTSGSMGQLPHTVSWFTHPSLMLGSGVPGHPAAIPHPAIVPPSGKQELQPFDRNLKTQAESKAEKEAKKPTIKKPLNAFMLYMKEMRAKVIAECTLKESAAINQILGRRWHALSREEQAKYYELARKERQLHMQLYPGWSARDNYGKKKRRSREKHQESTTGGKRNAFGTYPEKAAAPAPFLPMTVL
Sequence (P35222 whole entry, the tested form may be a part): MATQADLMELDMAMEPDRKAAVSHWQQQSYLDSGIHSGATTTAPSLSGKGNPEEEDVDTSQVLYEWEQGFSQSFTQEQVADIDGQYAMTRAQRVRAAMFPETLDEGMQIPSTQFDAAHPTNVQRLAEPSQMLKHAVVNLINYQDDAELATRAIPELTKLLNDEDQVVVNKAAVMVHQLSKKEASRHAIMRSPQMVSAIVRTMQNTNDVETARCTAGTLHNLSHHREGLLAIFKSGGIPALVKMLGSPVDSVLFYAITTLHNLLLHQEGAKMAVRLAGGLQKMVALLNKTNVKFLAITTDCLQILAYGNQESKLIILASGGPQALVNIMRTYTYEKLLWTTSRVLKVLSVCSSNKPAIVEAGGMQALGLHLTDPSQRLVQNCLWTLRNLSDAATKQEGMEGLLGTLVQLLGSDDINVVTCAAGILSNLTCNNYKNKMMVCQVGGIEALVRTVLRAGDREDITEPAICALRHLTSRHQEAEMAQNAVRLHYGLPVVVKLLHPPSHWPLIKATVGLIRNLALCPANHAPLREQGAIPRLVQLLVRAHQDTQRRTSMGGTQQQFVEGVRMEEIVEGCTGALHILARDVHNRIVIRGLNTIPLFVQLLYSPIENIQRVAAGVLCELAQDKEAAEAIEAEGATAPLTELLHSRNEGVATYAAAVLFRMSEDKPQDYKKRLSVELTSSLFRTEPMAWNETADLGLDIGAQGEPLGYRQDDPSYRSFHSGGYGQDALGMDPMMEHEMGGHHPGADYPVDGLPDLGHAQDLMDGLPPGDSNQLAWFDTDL
Experiment: Inhibition of T cell factor7/beta-catenin interaction by protein fragment complementation assay

Smi: CC(C)[C@@](O)(C[C@H]1C(=O)/C(=C(\O)[C@H]2[C@@H]3CCCC[C@H]3C=C[C@H]2C)C(=O)N1C)C(=O)O
Measured on: Catenin beta-1/Transcription factor 7 (Homo sapiens, UniProt P35222+P36402)
IC50 (µM): 6
